# B-score binding assay per record follows
Molecular target: human NTCP (Homo sapiens, UniProt Q14973)
Sequence (Q14973 1-349): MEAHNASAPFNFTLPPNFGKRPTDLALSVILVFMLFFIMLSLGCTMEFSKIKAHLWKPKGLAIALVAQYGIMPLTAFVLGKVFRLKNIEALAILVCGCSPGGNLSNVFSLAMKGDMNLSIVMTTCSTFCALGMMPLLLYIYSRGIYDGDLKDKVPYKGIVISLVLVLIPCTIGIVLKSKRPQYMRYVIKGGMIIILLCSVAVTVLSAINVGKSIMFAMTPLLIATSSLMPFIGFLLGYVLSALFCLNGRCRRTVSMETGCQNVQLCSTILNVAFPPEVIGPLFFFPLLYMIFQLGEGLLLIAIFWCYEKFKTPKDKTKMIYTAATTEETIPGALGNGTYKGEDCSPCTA
Assay: Screening fluorescent competitive Myrcludex B-FITC binding assay (96-well, 10 µM drug)
Conditions: Prestwick library screen, 10 µM drug; B-score of Myrcludex B-FITC binding
Counter-ions that a name gives are not always drawn. Starred links: 1 amine or outer side, 2 acyl side, 3 side chain; linkers in the order of their positions; H or OH if unused. Positions of bridges follow the written chain, without caps; N, C: chain ends. Non-standard residues stand in square brackets, D forms with d. Residues, ends and D or L forms follow the SMILES beside them. *: point of attachment. X1 = NC1=N[C@@H]([C@H](N[*:1])C(=O)[*:2])C[C@H](O)N1; ΔAla(Z-3-ureido) = NC(=O)N/C=C(\N)C(=O)O; β3hOrn = NCCC[C@H](N)CC(=O)*; Dap = NC[C@H](N)C(=O)O
Respond numerically, and do not add a unit to the figure.

Please list B-score binding assay recorded for the compound NCCC[C@H](N)CC(=O)N[C@H]1CNC(=O)[C@H]([C@H]2C[C@H](O)NC(N)=N2)NC(=O)/C(=C/NC(N)=O)NC(=O)[C@H](CO)NC(=O)[C@H](CO)NC1=O.O=S(=O)(O)O [Viomycin sulfate] (β3hOrn-[Dap]SS[ΔAla(Z-3-ureido)][X1]; lactam 1-C)
0.234

Please list B-score binding assay recorded for the compound CCCCc1ccc2[nH]c(NC(=O)OC)nc2c1
0.33

Please list B-score binding assay recorded for the compound CN1C(=O)CCS(=O)(=O)C1c1ccc(Cl)cc1 (stereo not drawn)
1.516

Please list B-score binding assay recorded for the compound CN(C)CCC(c1ccc(Cl)cc1)c1ccccn1 (stereo not drawn) [Chlorpheniramine maleate]
1.318

Please list B-score binding assay recorded for the compound CO[C@@H]1[C@@H](OC(N)=O)[C@@H](O)[C@H](Oc2ccc3c([O-])c(NC(=O)c4ccc(O)c(CC=C(C)C)c4)c(=O)oc3c2C)OC1(C)C.[Na+] [Novobiocin sodium salt]
0.269

Please list B-score binding assay recorded for the compound CC(C)(C)NC[C@H](O)COc1nsnc1N1CCOCC1.O=C(O)/C=C\C(=O)O [Timolol maleate salt]
0.866
